The reported numbers originate from ChEMBL document CHEMBL5380842.

target: Cytochrome P450 3A4 (Homo sapiens, UniProt P08684); assay: Inhibition of CYP3A4-M (unknown origin); format: ADME
Sequence (P08684 whole entry): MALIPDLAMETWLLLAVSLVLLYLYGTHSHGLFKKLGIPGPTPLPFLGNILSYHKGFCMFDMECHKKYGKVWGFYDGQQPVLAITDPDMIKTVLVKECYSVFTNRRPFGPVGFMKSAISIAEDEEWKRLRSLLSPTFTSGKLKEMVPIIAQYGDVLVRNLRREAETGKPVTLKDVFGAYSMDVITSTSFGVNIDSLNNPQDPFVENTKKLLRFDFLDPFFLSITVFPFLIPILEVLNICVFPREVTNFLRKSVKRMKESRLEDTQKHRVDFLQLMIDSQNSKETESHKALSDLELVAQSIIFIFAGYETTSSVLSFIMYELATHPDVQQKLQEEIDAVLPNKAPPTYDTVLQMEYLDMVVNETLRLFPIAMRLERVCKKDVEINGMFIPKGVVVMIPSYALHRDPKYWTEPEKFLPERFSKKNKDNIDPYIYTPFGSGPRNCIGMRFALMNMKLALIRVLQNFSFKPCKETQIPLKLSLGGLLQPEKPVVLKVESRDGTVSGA
pIC50: −log10 of the molar value.

>  <smiles.str>
Cc1cc(S(=O)(=O)N[C@H](C)C2CCN(C)CC2)ccc1NC(=O)c1ccccc1C

>  <pIC50>
< 5.00

$$$$

====

test: Stability in mouse hepatocytes assessed as half life; format: ADME, cell-based, Hepatocyte
assay.endpoint: half-life

>  <smiles.str>
Cc1cc(S(=O)(=O)N[C@H](C)C2CCN(C)CC2)ccc1NC(=O)c1ccccc1C

>  <recorded.value>
43.5 h

$$$$

====

assay: Tmax in ICR mouse at 50 mg/kg, po; format: ADME, organism-based; conditions: in vivo

>  <smiles.str>
Cc1cc(S(=O)(=O)N[C@H](C)C2CCN(C)CC2)ccc1NC(=O)c1ccccc1C

>  <Tmax>
30 min

$$$$
